Measured values drawn from the supplement of paper PMC4466140 for this set.

target_under_test: SpAbp1-D1
run_description: SPOT peptide array binding signal intensity (averaged, normalized) (arbitrary units (background-subtracted, floor 0; scale differs between SH3 domains)); higher = stronger binding of the SH3 domain to the peptide
measurement_type: SPOT peptide array binding signal intensity

binder: LEFRAILFIPKRAPF
reported_result: 30
//
binder: RRRIAYPFYPFKKLG
reported_result: 155
//
binder: RLSRLLLSLPPESFT
reported_result: 198
//
binder: VPPVPLPFGIPPFPM
reported_result: 2
//
binder: NENKKLPPAPTVFGL
reported_result: ≤ 0
//
binder: SKSRLLIELPEGFFT
reported_result: ≤ 0
//
binder: GSKSGPPPRPKKPST
reported_result: 85
